# study-target: T1, human bow-Ang-2 tetrameric construct (hBA2) (human)
# T1 construct: also called human BA2; hBA2-hIgG1
# T1 sequence (chain, as listed by the source limits assumed): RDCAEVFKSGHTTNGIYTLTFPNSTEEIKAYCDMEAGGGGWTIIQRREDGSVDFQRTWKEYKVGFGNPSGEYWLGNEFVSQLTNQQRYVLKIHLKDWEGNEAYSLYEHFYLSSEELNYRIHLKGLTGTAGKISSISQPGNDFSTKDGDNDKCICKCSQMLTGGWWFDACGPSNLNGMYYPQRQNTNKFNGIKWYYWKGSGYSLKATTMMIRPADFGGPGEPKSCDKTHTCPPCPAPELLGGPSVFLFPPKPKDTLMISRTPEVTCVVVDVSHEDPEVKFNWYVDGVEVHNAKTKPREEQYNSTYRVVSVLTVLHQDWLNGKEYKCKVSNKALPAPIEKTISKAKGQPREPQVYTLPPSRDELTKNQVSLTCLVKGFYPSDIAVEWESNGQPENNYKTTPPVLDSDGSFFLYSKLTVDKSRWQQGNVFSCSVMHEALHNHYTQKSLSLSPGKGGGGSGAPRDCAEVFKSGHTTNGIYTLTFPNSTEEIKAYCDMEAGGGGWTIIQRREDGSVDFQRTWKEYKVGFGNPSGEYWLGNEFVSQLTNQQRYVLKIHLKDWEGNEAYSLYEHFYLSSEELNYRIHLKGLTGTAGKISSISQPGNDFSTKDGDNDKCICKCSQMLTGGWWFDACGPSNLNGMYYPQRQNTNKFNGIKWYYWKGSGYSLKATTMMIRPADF
# assay-method-text: SPR, captured Ab

binder	T1/2 / h
H1H728N (antibody, V domains shown) VH: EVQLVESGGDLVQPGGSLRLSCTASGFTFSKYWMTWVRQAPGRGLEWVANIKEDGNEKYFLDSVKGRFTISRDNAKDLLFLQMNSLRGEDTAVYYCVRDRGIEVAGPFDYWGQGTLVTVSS VL: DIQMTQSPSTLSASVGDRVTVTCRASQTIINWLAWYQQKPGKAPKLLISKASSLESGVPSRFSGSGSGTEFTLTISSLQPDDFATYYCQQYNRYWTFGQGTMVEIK	3.08
H1H695P (antibody, V domains shown) VH: QVQLVESGGGVVQPGRSLRLSCAASGFTFSSYGMHWVRQAPGKGLEWVAVMWYDETNKYYADSVKGRFTISRDNSKNTLYLQMNSLRAEDTAVYYCARYSGYEDYYHGMDVWGQGTTVTVS VL: EIVMTQSPATPSVSPGERATLSCRASQSISSNLAWYQQKPGQAPRLLIYGASTRATGIPARFSGSGSGTEFTLTISSLQSEDFAVYYCQHYNNWITFGQGTRLEIK	4.24
H1H742N (antibody, V domains shown) VH: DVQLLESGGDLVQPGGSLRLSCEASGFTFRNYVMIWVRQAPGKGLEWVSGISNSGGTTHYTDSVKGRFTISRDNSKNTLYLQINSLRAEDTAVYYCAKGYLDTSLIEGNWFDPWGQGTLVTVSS VL: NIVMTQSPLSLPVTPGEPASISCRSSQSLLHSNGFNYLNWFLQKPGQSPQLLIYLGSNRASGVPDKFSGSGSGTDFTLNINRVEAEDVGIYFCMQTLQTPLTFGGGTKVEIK	1.45
